- TEST_DETAILS: in vivo
- CONDITION_LABEL: male, beagle, dog, in vivo, 6 mg/kg
OBSERVABLE: bioavailability (%)
Please state the figure in %; there is no need to write the unit.

Q: // query bioavailability value for entry C=C1CCN([C@H](C)[C@](O)(Cn2cncn2)c2ccc(F)cc2F)CC1 [Efinaconazole]
Ans: 51.4

* * *

- TEST_DETAILS: in vivo
- CONDITION_LABEL: male, dog, in vivo, 6 mg/kg, beagle dog, fasting, single 6 mg/kg P.O; group Mean (6 animals); read-out: Blood voriconazole concentration, Time 2 hr
OBSERVABLE: concentration at 2 h
The answer consists of two parts: a number and, after it, its unit.

Q: What does the record list as concentration at 2 h for C[C@@H](c1ncncc1F)[C@](O)(Cn1cncn1)c1ccc(F)cc1F ?
Ans: 3090 ng/mL

* * *

- TEST_DETAILS: in vivo
- CONDITION_LABEL: male, dog, in vivo, 6 mg/kg, beagle dog, fasting, single 6 mg/kg P.O; individual animals; read-out: Blood voriconazole concentration, Time 24 hr
OBSERVABLE: concentration at 24 h (ng/mL)
# unit: ng/mL | format: bare number

Q: May I ask what concentration at 24 h has been recorded for C[C@@H](c1ncncc1F)[C@](O)(Cn1cncn1)c1ccc(F)cc1F [Voriconazole] ?
Ans: 1470

* * *

- TEST_DETAILS: in vivo
- CONDITION_LABEL: male, dog, in vivo, 6 mg/kg, beagle dog, fasting, single 6 mg/kg P.O; individual animals; read-out: Blood voriconazole concentration, Time 10 hr
OBSERVABLE: concentration at 10 h (ng/mL)
Form entry: value (ng/mL) — number only.

Q: What does the data say about its concentration at 10 h? Entry: C[C@@H](c1ncncc1F)[C@](O)(Cn1cncn1)c1ccc(F)cc1F
Ans: 2250

* * *

- TEST_DETAILS: in vivo
- CONDITION_LABEL: male, dog, in vivo, po, 6 mg/kg, beagle dog, fasting, single 6 mg/kg P.O; individual animals; read-out: Cmax
OBSERVABLE: Cmax (ng/mL)
Write the answer as a number in ng/mL, unit excluded.

Q: Item under review: C[C@@H](c1ncncc1F)[C@](O)(Cn1cncn1)c1ccc(F)cc1F . Reported Cmax?
Ans: 3520

* * *

- TEST_DETAILS: in vivo
- CONDITION_LABEL: male, dog, in vivo, 6 mg/kg, beagle dog, fasting, single 6 mg/kg P.O; group Mean (6 animals); read-out: Blood voriconazole concentration, Time 1 hr
OBSERVABLE: concentration at 1 h (ng/mL)
Field: numeric (ng/mL). Do not append units.

Q: Would you kindly share the measured concentration at 1 h for C[C@@H](c1ncncc1F)[C@](O)(Cn1cncn1)c1ccc(F)cc1F ?
Ans: 3440

* * *

- TEST_DETAILS: in vivo
- CONDITION_LABEL: male, dog, in vivo, 6 mg/kg, beagle dog, fasting, single 6 mg/kg P.O; group Mean (6 animals); read-out: Blood voriconazole concentration, Time 10 hr
OBSERVABLE: concentration at 10 h (ng/mL)
I only need the number, in ng/mL, no unit after it.

Q: Need concentration at 10 h, item C[C@@H](c1ncncc1F)[C@](O)(Cn1cncn1)c1ccc(F)cc1F
Ans: 2270

Measured values drawn from patent US20250281476A1 for this set.
